test: chemical genetic growth profiling, strain panel (AID 1159580);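 note: tested at 20 µM; growth read once vehicle control cultures reached saturation at 30 °C; 1 = growth at the plate median or of vehicle wells; lower values mean less growth of the strain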; conditions: S. cerevisiae deletion strains, growth OD, locus YBR231C, strain swc5, hits give low values
About 2,000 (36%) of roughly 5,500 compounds were called active. Not shown: some 18% with an inconclusive outcome. This is one part of the list.
observable: normalized growth

1. NC(=O)CC[C@@H](N)C(=O)O    1.02
2. COc1ccc(-c2cc(=O)c3c(O)c(OC)c(OC)c(OC)c3o2)cc1    0.986
3. C=C1C(N)CC2CC1C2(C)C (configuration not stated)    0.999
4. COc1ccc(-c2cc(=O)c3c(OC)c(OC)c(OC)c(OC)c3o2)cc1    0.795
5. FC(F)(F)C(Cl)Br (configuration not stated)    1.03
6. COc1cc([C@@H]2c3cc4c(cc3[C@H](O)[C@H]3COC(=O)[C@@H]23)OCO4)cc(OC)c1OC    1.02
7. COc1ccc2cc3[n+](cc2c1OC)CCc1cc2c(cc1-3)OCO2    0.985
8. COC(=O)C1=C(C)NC(C)=C(C(=O)OCC(C)C)C1c1ccccc1[N+](=O)[O-] (configuration not stated)    0.212
9. COc1ccc(-c2coc3cc(OC(C)=O)cc(OC(C)=O)c3c2=O)cc1    0.957
10. N[C@@H]1CONC1=O    1.01
11. O=c1c(-c2ccc(O)cc2)coc2cc(O)cc(O)c12    1.01
12. Cn1c(=O)c2[nH]c(C3CCCC3)nc2n(C)c1=O    0.997
13. COC(=O)C1=C(C)NC(C)=C(C(=O)OC)C1c1ccccc1[N+](=O)[O-]    0.836
14. O=c1c(-c2ccccc2)coc2cc(O)cc(O)c12    0.965
15. COc1cc([C@@H]2c3cc4c(cc3C(O[C@@H]3O[C@@H]5CO[C@@H](c6cccs6)OC5[C@H](O)[C@H]3O)C3COC(=O)[C@@H]32)OCO4)cc(OC)c1O (some centres not stated)    0.997
16. CCCCCCCCCCCCCCCC[n+]1ccccc1    0.0577
17. CC(=O)N(O)CCCCCNC(=O)CCC(=O)N(O)CCCCCNC(=O)CCC(=O)N(O)CCCCCN    0.967
18. COCCOC(=O)C1=C(C)NC(C)=C(C(=O)OC(C)C)C1c1cccc([N+](=O)[O-])c1 (configuration not stated)    0.996
19. CN1CCN2c3ccccc3Cc3ccccc3C2C1 (configuration not stated)    0.996
20. CCCCOc1cc(CC2CNC(=O)N2)ccc1OC (configuration not stated)    1.01
21. O=C1CC[C@]23C=CC(=O)NCCCCNCCCNC(=O)/C=C/c4ccc(c2c4)O[C@@H]3C1    1.01
22. COc1cc2cc[n+]3cc4c(OC)c(OC)ccc4cc3c2cc1OC    0.983

---

assay: chemical genetic growth profiling, strain panel (AID 1159580);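 note: tested at 20 µM; growth read once vehicle control cultures reached saturation at 30 °C; 1 = growth at the plate median or of vehicle wells; lower values mean less growth of the strain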; settings: S. cerevisiae deletion strains, growth OD, locus YJL166W, strain qcr8, hits give low values
Out of some 5,500 compounds screened, about 2,000 (36%) were called active. Not shown: some 18% with an inconclusive outcome. The list shows a part of the results.
observable: normalized growth

1. O=c1oc2ccccc2c(O)c1Cc1c(O)c2ccccc2oc1=O    0.995
2. CC1(C)O[C@@H]2CC3C4C[C@H](F)C5=CC(=O)C=CC5(C)C4C(O)CC3(C)[C@]2(C(=O)CO)O1 (some centres not stated)    1.02
3. O=C(O)c1cn(-c2ccc(F)cc2)c2cc(N3CCNCC3)c(F)cc2c1=O    0.947
4. O=C(/C=C/c1ccccc1)c1ccc(O)cc1    0.0857
5. CC(=O)O[C@H]1C[C@@]2(C)[C@H](c3ccoc3)OC(=O)[C@H]3O[C@]32[C@@]2(C)C1[C@]1(C)C(C[C@H]2OC(C)=O)C(C)(C)[C@H](OC(C)=O)C[C@@H]1OC(C)=O (some centres not stated)    0.976
6. CC(C)=CCc1c2c(c(O)c3c(=O)c(O)c(-c4ccccc4)oc13)C=CC(C)(C)O2    0.891
7. COc1ccc(C(=O)/C=C/c2ccccc2)cc1    0.746
8. CCN1CCN(c2cc3c(cc2F)c(=O)c(C(=O)O)cn3C2CC2)CC1    1
9. NS(=O)(=O)c1cc2c(cc1C(F)(F)F)NCNS2(=O)=O    0.993
10. NCCc1ccc(O)c(O)c1    1
11. Nc1ccc(C(=O)Oc2ccccc2)c(O)c1    0.935
12. CC(=O)Nc1ccc(OC(=O)c2ccccc2O)cc1    0.952
13. CCCCCCc1ccc(O)cc1O    0.85
14. CC(=O)O[C@@H]1CC2C(C)(C)C(=O)CC[C@]2(C)C2CC[C@@]3(C)[C@H](c4ccoc4)OC(=O)C4OC43[C@@]21C (some centres not stated)    0.977
15. CC(=O)CC(c1ccccc1)c1c(O)c2ccccc2oc1=O (configuration not stated)    1.01
16. O=c1c2ccccc2oc2ccccc12    0.879
17. CCCCCCCCCc1ccc(O)cc1    0.057
18. CC(=O)Nc1ccc(O)cc1    1
19. CC(=O)N(O)CCCCCNC(=O)CCC(=O)N(O)CCCCCNC(=O)CCC(=O)N(O)CCCCCN    1.02
20. CC1(C)O[C@@H]2CC3C4C[C@H](F)C5=CC(=O)C=C[C@]5(C)[C@@]4(F)[C@@H](O)C[C@]3(C)[C@]2(C(=O)CO)O1 (some centres not stated)    1.03
21. CC(=O)Nc1cccc(O)c1    0.982
22. O=C(O)c1cc(=O)c2ccccc2o1    0.97

---

test: chemical genetic growth profiling, strain panel (AID 1159580);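 note: tested at 20 µM; growth read once vehicle control cultures reached saturation at 30 °C; 1 = growth at the plate median or of vehicle wells; lower values mean less growth of the strain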; details: S. cerevisiae deletion strains, growth OD, locus YKL068W, hits give low values
Among all 5,500 compounds or so, about 2,000 (36%) were called active. Roughly 18% stayed inconclusive and do not appear here. The list shows a part of the results.
observable: normalized growth

1. Nc1ccc(C(=O)O)c(O)c1 (tested in a mixture with another compound)    0.992 (inactive)
2. Nc1ccc(C(=O)Oc2ccccc2)c(O)c1    0.93 (active)
3. CC(=O)Oc1cc(OC(C)=O)c2c(=O)c(-c3ccccc3)coc2c1    0.993 (inactive)
4. CC(N)Cc1ccc(O)cc1 (stereo not drawn)    1.01 (inactive)
5. CN1CCc2c(c3ccccc3n2Cc2ccccc2)C1    0.995 (inactive)
6. CC1NC(=O)NC1=O (stereo not drawn)    1.01 (inactive)
7. CCCCCCc1ccc(O)cc1O    0.967 (inactive)
8. COc1cc([C@@H]2c3cc4c(cc3[C@H](OC(C)=O)[C@H]3COC(=O)[C@H]23)OCO4)cc(OC)c1OC    0.988 (inactive)
9. CN1CCOC(c2ccccc2)c2ccccc2C1 (stereo not drawn)    1.01 (inactive)
10. CC(C)Oc1ccc2c(=O)cc(-c3ccccc3)oc2c1    0.797 (active)
11. CN1CCN2c3ccccc3Cc3ccccc3C2C1 (stereo not drawn)    0.991 (inactive)
12. Nc1ccc(C(=O)O)c(O)c1    0.999 (inactive)
13. CCCCCCCCCc1ccc(O)cc1    0.964 (inactive)
14. CC(=O)Nc1ccc(O)cc1    0.936 (active)
15. C=C1C(N)CC2CC1C2(C)C (stereo not drawn)    1.01 (inactive)
16. COc1ccc(-c2cc(=O)c3c(OC)cccc3o2)cc1    1.02 (inactive)
17. Cc1cc2cc3c(C)cc(=O)oc3c(C)c2o1    1.01 (inactive)
18. O=c1c(-c2ccccc2)coc2cc(O)cc(O)c12    0.951 (inactive)
19. CC(C)c1ccc2c(c1O)CC[C@H]1C3=C(CC[C@]21C)C(=O)OC3    0.946 (inactive)
20. C#CCOS(=O)OC1CCCCC1Oc1ccc(C(C)(C)C)cc1 (stereo not drawn)    0.994 (inactive)
21. CCC(CCC(C)[C@H]1CCC2C3CC=C4C[C@@H](O)CC[C@]4(C)C3CC[C@@]21C)C(C)C (stereo partly drawn)    0.981 (inactive)
22. CCCCC1C(=O)N(c2ccccc2)N(c2ccccc2)C1=O    0.963 (inactive)
23. NCCc1ccc(O)cc1    0.994 (inactive)
24. CCOC(=O)C1C(C=C(C)C)C1(C)C (stereo not drawn)    1.01 (inactive)
25. CC1=C2C(=CO[C@H](C)[C@H]2C)C(=O)C(C(=O)O)=C1O    0.972 (inactive)
26. COc1ccc(-c2cc(=O)c3ccccc3o2)cc1OC    1.03 (inactive)
27. Cn1c(=O)c2[nH]c(C3CCCC3)nc2n(C)c1=O    1.02 (inactive)
28. C=CCCCCCCCCCCCC(O)CC(O)CO (stereo not drawn)    0.995 (inactive)
